What pIC50 was measured for each of the following?
Target: Isocitrate lyase (Magnaporthe oryzae (strain 70-15 / FGSC 8958) (Rice blast fungus)(Pyricularia oryzae))
Sequence (P0CT06 whole entry): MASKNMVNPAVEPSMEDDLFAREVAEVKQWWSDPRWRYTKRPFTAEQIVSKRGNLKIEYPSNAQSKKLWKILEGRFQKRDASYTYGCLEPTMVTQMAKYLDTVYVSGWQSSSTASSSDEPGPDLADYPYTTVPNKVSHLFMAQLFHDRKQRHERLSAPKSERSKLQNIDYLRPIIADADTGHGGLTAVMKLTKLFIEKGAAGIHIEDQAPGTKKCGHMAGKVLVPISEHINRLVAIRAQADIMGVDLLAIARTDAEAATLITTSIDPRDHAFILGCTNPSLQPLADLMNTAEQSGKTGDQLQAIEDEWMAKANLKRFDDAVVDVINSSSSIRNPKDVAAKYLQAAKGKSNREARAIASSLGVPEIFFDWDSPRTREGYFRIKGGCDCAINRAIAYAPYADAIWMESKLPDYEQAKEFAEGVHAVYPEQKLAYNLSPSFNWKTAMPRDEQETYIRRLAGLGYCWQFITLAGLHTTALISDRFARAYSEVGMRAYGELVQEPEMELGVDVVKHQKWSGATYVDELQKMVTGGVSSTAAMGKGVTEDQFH
Experiment: Inhibition of Magnaporthe grisea isocitrate lyase
Just so you know, pIC50 here is -log10 of the concentration in molar units; reply with that number alone.

Problem: In one line, give reported pIC50 of the entry O=C(O)CC[N+](=O)[O-] .
Result: 4.29

Problem: Write down pIC50 measured for item CC1(C)CCC[C@@]2(CO)[C@H]1CC[C@]1(C)[C@@H]2CC[C@]2(C)c3cocc3CC[C@@H]12
Result: 3.91

----------
Tested on: Staphylococcus aureus
Test: Antibacterial activity against Staphylococcus aureus ATCC 65389 after 24 hrs by twofold dilution method
Assay type: functional
Conditions: ATCC 65389, 24 h
Task for the reader: assign each of the following compounds its reported MIC.
Just the number please, in µg/mL, no unit attached.

Problem: Identify measured MIC obtained with Staphylococcus aureus for CC1=C(O)/C(=C/[C@H](C)CCC/C(C)=C/CC/C(C)=C/CCc2ccoc2)OC1=O .
Result: 12.5

Problem: // fetch MIC; item: COC(=O)C1=CC[C@@H]2[C@](C)(CC[C@H]3[C@@]2(C)CC[C@H]2C(C)(C)CCC[C@@]23COC(C)=O)[C@H]1C=O ; system: Staphylococcus aureus
Result: 25

Problem: Please report MIC with Staphylococcus aureus for item CC1=C(O)/C(=C/[C@H](C)CC/C=C(/C)CCC/C=C(/C)CCc2ccoc2)OC1=O .
Result: 6.25

----------
Test system: Staphylococcus aureus
Assay: Antibacterial activity against Staphylococcus aureus ATCC 65389 after 24 hrs by twofold dilution method
Format: functional
Settings: ATCC 65389, 24 h
Observation Type: MIC

Problem: Read the entry CO[C@@H]1OCC2=CC[C@@H]3[C@](C)(CC[C@H]4[C@@]3(C)CC[C@H]3C(C)(C)CCC[C@@]34CO)[C@H]21 and write its reported MIC.
Result: > 100 µg/mL

Problem: Name the recorded MIC of the item CC(=O)OC[C@]12CCCC(C)(C)[C@@H]1CC[C@@]1(C)[C@@H]3C[C@H](OC(C)=O)C4=CO[C@@H](OC(C)=O)[C@@H]4[C@@]3(C)CC[C@@H]12 in your answer.
Result: > 100 µg/mL

Problem: Determine from records and report MIC for CC(=O)O[C@@H]1OC=C2[C@@H](OC(C)=O)C[C@@H]3[C@](C)(CC[C@H]4[C@@]3(C)CC[C@H]3C(C)(C)CCC[C@@]34C=O)[C@H]21
Result: > 100 µg/mL

Problem: Recall and state the measured MIC for C/C(=C\CC/C(C)=C/C[C@H](O)c1ccoc1)CC/C=C(\C)CC(=O)CC(C)C .
Result: > 100 µg/mL

Problem: Consider the compound CC1(C)CCC[C@@]2(CO)[C@H]1CC[C@]1(C)[C@@H]2CC[C@]2(C)c3cocc3CC[C@@H]12 and give its recorded MIC.
Result: > 100 µg/mL

Problem: Please give measured MIC of the following entry: CC(=O)OC[C@]12CCCC(C)(C)[C@@H]1CC[C@]1(C)[C@@H]2CC[C@]2(C)c3cocc3CC[C@@H]12
Result: > 100 µg/mL

Problem: Specify MIC for COC(=O)C1=CC[C@@H]2[C@](C)(CC[C@H]3[C@@]2(C)CC[C@H]2C(C)(C)CCC[C@@]23COC(C)=O)[C@@H]1C=O and stop.
Result: > 100 µg/mL

Problem: For the compound CC1(C)S[C@@H]2[C@H](NC(=O)[C@H](N)c3ccccc3)C(=O)N2[C@H]1C(=O)O , give its reported MIC.
Result: 1.56 µg/mL
